target: Phospho-N-acetylmuramoyl-pentapeptide-transferase (Bacillus subtilis (strain 168), UniProt Q03521); experiment: Inhibition of Bacillus subtilis transferase MraY after 30 mins
Sequence (Q03521 whole entry): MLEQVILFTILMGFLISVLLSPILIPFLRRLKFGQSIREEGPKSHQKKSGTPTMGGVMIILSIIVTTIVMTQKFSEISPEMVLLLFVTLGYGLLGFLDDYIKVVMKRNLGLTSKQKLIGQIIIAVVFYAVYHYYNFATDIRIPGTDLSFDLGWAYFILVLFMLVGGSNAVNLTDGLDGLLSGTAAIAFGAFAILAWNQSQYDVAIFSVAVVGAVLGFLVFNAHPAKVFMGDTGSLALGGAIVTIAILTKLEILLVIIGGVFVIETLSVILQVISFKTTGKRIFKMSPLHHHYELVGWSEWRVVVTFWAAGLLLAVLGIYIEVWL
pIC50: −log10 of the molar value.
recordedMetric: pIC50

Please review the entries below; each comes with its answer.
INSERT INTO measurements (smiles, recordedmetric, quantitativeresult) VALUES
  ('N=C(N)NCc1cn(C[C@H]2O[C@@H](OC[C@H]3O[C@@H](Cn4ccc(=O)[nH]c4=O)[C@@H](O)[C@@H]3O)[C@H](O)[C@@H]2O)nn1', 'pIC50', 3.22),
  ('NCc1cn(C[C@H]2O[C@@H](OC[C@H]3O[C@@H](Cn4ccc(=O)[nH]c4=O)[C@@H](O)[C@@H]3O)[C@H](O)[C@@H]2O)nn1', 'pIC50', 3.23),
  ('NC[C@H]1O[C@@H](OC[C@H]2O[C@@H](Cn3ccc(=O)[nH]c3=O)[C@@H](O)[C@@H]2O)[C@H](O)[C@@H]1O', 'pIC50', 3.24);

a: O=C(NCc1cn(C[C@H]2O[C@@H](OC[C@H]3O[C@@H](Cn4ccc(=O)[nH]c4=O)[C@@H](O)[C@@H]3O)[C@H](O)[C@@H]2O)nn1)[C@@H]1CCCN1
b: N=C(N)NC[C@H]1O[C@@H](OC[C@H]2O[C@@H](Cn3ccc(=O)[nH]c3=O)[C@@H](O)[C@@H]2O)[C@H](O)[C@@H]1O
For the two items a and b , which reports the higher pIC50 value? Your answer should be the label attached to the chosen record.
a
(a: 3.09, b: 2.75)

Where do these numbers come from? They come from ChEMBL document CHEMBL1166006.
